Hello, the source for this data is patent US11459323B2, in case you need it.

System: Acinetobacter baumannii ATCC-BAA-1799
Assay: MIC on Acinetobacter baumannii strains
Type: cell-based
Details: ATCCBAA1799, ATCC-BAA-1799, read-out: MIC
Text: Twelve strains of Acinetobacter baumannii, A. baumannii ATCC 17978 (ATCC-BAA-1605, ATCC-BAA-1789, ATCC-BAA-1790, ATCC-BAA-1791, ATCC-BAA-1792, ATCC-BAA-1793, ATCC-BAA-1794, ATCC-BAA-1795, ATCC-BAA-1799, ATCC-BAA-1800, ATCC 19606, ATCC 17978) were used to determine the minimum inhibitory concentration (MIC) of the compounds by micro-liquid dilution method according to the Institute of Clinical and Laboratory Standard (CLSI) requirements.
Catalogue of molecules with associated MIC
Give just the numeric value; µg/mL need not be written.

Req: Recall the reported MIC of CC1(C)[C@H](NC(=O)/C(=N\OCCOc2ccc3c(c2)CCN(C(=N)NCCCN)C3)c2csc(N)n2)C(=O)N1OS(=O)(=O)O [Compound 4] on Acinetobacter baumannii ATCC-BAA-1799 and write it down.
Resp: 4
